- test description: NCI Yeast Anticancer Drug Screen. Data for the mlh1 rad18 strain (AID 175)
- measurement conditions: S. cerevisiae mlh1 rad18 strain growth inhibition; at 50.0 µM (retest, dose inferred, filed as 5.0)
Compounds without any hit were thinned out: in the full panel of roughly 79,000, 15% have a hit. Calls of active or inactive are those of the source. No stated cut-off is given here; in the data, active means growth inhibition above about 70%; inactive means the rest.
Labels: t for active, f for inactive

{"molecule": "O=C(Oc1c(Cl)cc(Cl)c(Cl)c1Cl)Oc1c(Cl)cc(Cl)c(Cl)c1Cl", "qualitative label": "f"}
{"molecule": "NNC(=O)c1ccccc1SSc1ccccc1C(=O)NN", "qualitative label": "t"}
{"molecule": "CC(C)CCOc1ccc(/C=C\\C(=O)O)cc1", "qualitative label": "f"}
{"molecule": "COc1ccc(/C=N/NC(=O)c2ccco2)cc1OC", "qualitative label": "f"}
{"molecule": "CS(=O)(=O)c1nnnn1-c1ccccc1", "qualitative label": "t"}
{"molecule": "O=C1OC(=O)c2ccc(S)c3cccc1c23", "qualitative label": "t"}
{"molecule": "Nc1cc(Br)c2cccnc2c1O", "qualitative label": "t"}
{"molecule": "CCCNC(=O)N(CC(C)(C)C)S(=O)(=O)c1ccc(Cl)cc1", "qualitative label": "f"}
{"molecule": "COc1cc2c(cc1OC)[C@H]1C(=O)c3cc4c(cc3[C@H]1N(C)C2=O)OCO4", "qualitative label": "f"}
{"molecule": "COc1ccc(OC2OC(COC(c3ccccc3)(c3ccc(OC)cc3)c3ccc(OC)cc3)C(O)C(O)C2O)cc1 (centres undefined)", "qualitative label": "t"}
{"molecule": "COc1ccc(N2C(=O)C(=O)C(C(C)=O)C2=O)cc1 (centres undefined)", "qualitative label": "f"}
{"molecule": "Clc1ccc(SSN2CCOCC2)cc1", "qualitative label": "t"}
{"molecule": "CN(NC(=O)/C(=C/c1cc(Cl)cc(Cl)c1O)NC(=O)c1ccccc1)c1cnn(-c2ccccc2)c(=O)c1Cl", "qualitative label": "f"}
{"molecule": "Cc1cc(NCCCCCCCNc2cc(C)nc3cc(N)ccc23)c2ccc(N)cc2n1", "qualitative label": "t"}
{"molecule": "COc1ccc(CCN2C(=O)C(=O)N(C3CCCCC3)C2=O)cc1OC", "qualitative label": "f"}
{"molecule": "Cc1cc2c(cc1C)C(=O)OC2=O", "qualitative label": "f"}
{"molecule": "O=C(CCCO)N/N=C\\c1ccc([N+](=O)[O-])s1", "qualitative label": "t"}
{"molecule": "CCOC(=O)N1C=C(C(=O)OC)C(c2ccccc2)C(C(=O)OC)=C1", "qualitative label": "f"}
{"molecule": "CC1(c2ccc(O)cc2)CC(C)(c2ccc(O)cc2)C1 (centres undefined)", "qualitative label": "t"}
{"molecule": "CCCCCCCCCC[N+](C)(C)CCC[N+](C)(C)CCCCCCCCCC", "qualitative label": "t"}
{"molecule": "c1ccc2c(c1)CCCc1cc3ccccc3nc1-2", "qualitative label": "t"}
{"molecule": "CCCCCCCCC(=O)NCCCNCCCNC(=O)CCCCCCCC", "qualitative label": "f"}
{"molecule": "C=CCOC(=O)N(C(=O)OCC=C)C(Cc1ccc(O)cc1)C(=O)NNc1ccccc1 (centres undefined)", "qualitative label": "f"}
{"molecule": "CCCCCCCCCCCCCCCC(=O)NCCN(C)C", "qualitative label": "t"}

* * *

Some molecules, each annotated with its measured growth inhibition.
- test description: NCI Yeast Anticancer Drug Screen. Data for the sgs1 mgt1 strain (AID 161);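 further: 0% = growth of cultures given vehicle only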
- measurement conditions: S. cerevisiae sgs1 mgt1 strain, at 50.0 µM (retest, dose inferred, filed as 5.0), stronger effect = higher value
The panel holds about 79,000 compounds, 15% with a hit somewhere; the sample as a whole holds those more often.

{"molecule": "C=CC[C@]1(C(C)Cc2ccc(OC)c(OC)c2)C[C@@H](OC)C=CC1=O (some centres not stated)", "growth inhibition, %": 85}
{"molecule": "COc1c(Br)c(=O)n(C)c(=O)n1C", "growth inhibition, %": 98}
{"molecule": "COc1ccc(CCN2C(=O)C(=O)N(C3CCCCC3)C2=O)cc1OC", "growth inhibition, %": -3}
{"molecule": "N#CC(C(=O)CCCC(=O)Nc1ccc(Cl)cc1)c1ccccc1Cl (configuration not stated)", "growth inhibition, %": 4}
{"molecule": "[N-]=[N+]=Nc1ccnc2ccc(C3CCCCC3)cc12", "growth inhibition, %": 99}
{"molecule": "c1csc(-c2nccc3c2[nH]c2ccccc23)c1", "growth inhibition, %": 95}
{"molecule": "CCOC(CC)C(O)(c1ccc(N(C)C)cc1)c1ccc(N(C)C)cc1 (configuration not stated)", "growth inhibition, %": 95}
{"molecule": "COC(=O)C(=O)C(/C=N/C(=S)NCCc1ccc(OC)c(OC)c1)=C(/O)c1ccc([N+](=O)[O-])cc1", "growth inhibition, %": 1}
{"molecule": "Cc1ccccc1NCc1ccccc1Cl", "growth inhibition, %": 99}
{"molecule": "O=c1c(Cl)cc2nc3ccccc3sc-2c1Cl", "growth inhibition, %": 79}
{"molecule": "Nc1ccc2oc(=O)c3ccccc3c2c1", "growth inhibition, %": 85}
{"molecule": "Clc1ccc(CSc2ncnc3c2ncn3C2CCCCO2)cc1 (configuration not stated)", "growth inhibition, %": 92}

* * *

- test description: NCI Yeast Anticancer Drug Screen. Data for the bub3 strain (AID 167)
- measurement conditions: S. cerevisiae bub3 mutant strain, at 50.0 µM, stronger effect = higher value
About 79,000 compounds went through this panel and 15% of them were active in at least one assay; those are over-represented in the sample as a whole.
Use 10% as the dividing line for growth inhibition, with the line itself on the 1.0 side and lower values as 0.0.

{"compound": "COc1ccc(CNc2nc3cc(C(F)(F)F)ccc3nc2C)cc1OC", "qualitative label": 1.0}
{"compound": "CCOC(=O)C(NS(=O)(=O)c1ccccc1)(C(F)(F)F)P(=O)(OCC(C)C)OCC(C)C (stereo unspecified)", "qualitative label": 1.0}
{"compound": "CN(/N=C/c1ccc(C(=O)O)cc1)C1=NCCCCN1", "qualitative label": 0.0}
{"compound": "COc1ccccc1C(=O)N(Cc1ccccc1)c1ccc(Cl)c(C(=O)OC(C)C)c1", "qualitative label": 0.0}
{"compound": "Cc1ccccc1NC(=O)C(=O)C(C#N)c1c(Cl)cccc1Cl (stereo unspecified)", "qualitative label": 1.0}
{"compound": "Nc1cc2c(cc1/C=C(\\C(=O)O)c1ccccc1)OCO2", "qualitative label": 0.0}

* * *

- test description: NCI Yeast Anticancer Drug Screen. Data for the rad50 strain (AID 155);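 further: 0% = growth of vehicle-only cultures of the same strain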
- measurement conditions: S. cerevisiae rad50 strain growth inhibition; at 50.0 µM (retest, dose inferred, filed as 5.0); stronger effect = higher value
About 79,000 compounds went through this panel and 15% of them were active in at least one assay; those are over-represented in the sample as a whole. Where a SMILES comes first, the peptide text is derived from it. The star is where a group is joined. Cbz = O=C(OCc1ccccc1)*; Boc = CC(C)(C)OC(=O)*; OSu = O=C1CCC(=O)N1O*; Bn = c1ccc(C*)cc1
Measured growth inhibition determines class: b0 = under 50%, b1 = from 50% up to 90%, b2 = 90% and over

{"molecule": "Nc1ccc2c(S(=O)(=O)O)cc(S(=O)(=O)O)cc2c1", "qualitative label": "b0"}
{"molecule": "CCOC(=O)CC1=NC(=Nc2ccc(Cl)c(Cl)c2)SC1", "qualitative label": "b2"}
{"molecule": "CCOC(=O)/C(C)=N/Nc1cc(Cl)ccc1O", "qualitative label": "b1"}
{"molecule": "CC(C)(C)OC(=O)NC(Cc1ccc(OCc2ccccc2)cc1)C(=O)NC(CCCCNC(=O)OCc1ccccc1)C(=O)ON1C(=O)CCC1=O (centres undefined) (Boc-Tyr(Bn)-Lys(Cbz)-OSu; configuration not given here)", "qualitative label": "b1"}
{"molecule": "CCOC(=O)/C(=C\\c1ccccc1)C(=O)CCN1CCOCC1", "qualitative label": "b2"}
{"molecule": "CN1CC[C@@H](c2ccccc2)[C@@H](O)C1", "qualitative label": "b0"}
{"molecule": "c1ccc2c(O[Si](Oc3cccc4ccccc34)(Oc3cccc4ccccc34)Oc3cccc4ccccc34)cccc2c1", "qualitative label": "b1"}

* * *

- test description: NCI Yeast Anticancer Drug Screen. Data for the mec2-1 strain (AID 157)
- measurement conditions: S. cerevisiae mec2-1 strain, at 50.0 µM
This is part of a sample that, as a whole, favours compounds with a hit. Of some 79,000 tested, about 15% had one in any assay. The source made the active and inactive calls. Rule as the data show it: active = growth inhibition above about 70%; inactive = the rest.
Labels: 1.0 for active, 0.0 for inactive

{"compound": "NC(=S)n1nc(-c2ccccc2)c(N=Nc2ccccc2Cl)c1-c1ccccc1", "qualitative label": 0.0}
{"compound": "CCCC[NH-].CCCC[NH-].[I][Pt+2][I]", "qualitative label": 0.0}
{"compound": "CC1SC(c2ccc(Cl)cc2)N2C(=O)C(C)SC(c3ccc(Cl)cc3)N2C1=O (stereo not given)", "qualitative label": 0.0}
{"compound": "NC(=S)N/N=C1\\CCCCc2ccccc21", "qualitative label": 1.0}
{"compound": "Cc1ccc(NC(=O)Oc2ccc(OC(=O)Cc3ccccc3)cc2)cc1NC(=O)Oc1ccc(OC(=O)Cc2ccccc2)cc1", "qualitative label": 1.0}
{"compound": "CCOC(=O)C1=C(C)NC(C)=C(C(=O)OCC)C1c1ccc([N+](=O)[O-])s1", "qualitative label": 1.0}
{"compound": "COc1cc2c(cc1OC)[C@H]1C(=O)c3cc4c(cc3[C@H]1N(C)C2=O)OCO4", "qualitative label": 0.0}
{"compound": "O=c1cccccc1[O-].O=c1cccccc1[O-].O=c1cccccc1[O-].[La+3]", "qualitative label": 1.0}
{"compound": "CSC1=Nc2ccccc2SC(c2ccccc2)C1c1ccccc1 (stereo not given)", "qualitative label": 0.0}
{"compound": "Cc1cccc(/C=N/Nc2cc(C)nc3ccccc23)n1", "qualitative label": 0.0}
{"compound": "O=C(O)CCC(=O)NCCNC(=O)CC(=O)O", "qualitative label": 0.0}
{"compound": "O=C(c1ccccc1)c1cccc2ccccc12", "qualitative label": 0.0}
{"compound": "CN1CCN(CC(=O)c2c(-c3ccccc3)[nH]c3ccccc23)CC1", "qualitative label": 0.0}
{"compound": "CC(CCC(=O)O)[C@H]1CCC2[C@@H]3CC(O)[C@@H]4CC(O)CC[C@]4(C)C3CC[C@@]21C (stereo not given in full)", "qualitative label": 1.0}
{"compound": "CC(C)C(C)(C(=O)O)C(C)C", "qualitative label": 0.0}
{"compound": "O=[N+]([O-])c1cccc(Cl)c1C(Nc1nncs1)Nc1nncs1", "qualitative label": 0.0}
{"compound": "CN(C)C(=S)/N=c1\\ssc(=S)n1-c1ccccc1", "qualitative label": 0.0}
{"compound": "Cc1ccc(S(=O)(=O)N/N=C2\\CC(C)OC3=C2CCCCCC3)cc1 (stereo not given)", "qualitative label": 1.0}
{"compound": "C=C1CC(c2ccc(OCCCN3C(=O)c4ccccc4C3=O)cc2)OC1=O (stereo not given)", "qualitative label": 0.0}
{"compound": "CC1(C)OC2C(CO)OC(n3ncc(=S)[nH]c3=O)C2O1 (stereo not given)", "qualitative label": 0.0}
{"compound": "O=C(CC(C[N+](=O)[O-])c1ccc2c(c1)OCO2)c1ccccc1 (stereo not given)", "qualitative label": 0.0}
{"compound": "Cn1c(Sc2ccc(-c3cccnc3)n2C)ccc1-c1cccnc1", "qualitative label": 1.0}
{"compound": "O=C1c2ccccc2-c2nnc3c(c21)Cc1ccccc1C3", "qualitative label": 0.0}
{"compound": "CC(CO)(CO)N=Cc1cc(I)cc(I)c1O", "qualitative label": 1.0}
{"compound": "CC1=CC(=O)c2c(O)c3c(c(O)c2C1=O)C1C(O)C(C3=O)C23C(=O)c4c(O)c(C)cc(O)c4C(O)=C2C(=O)CC(O)C13 (stereo not given)", "qualitative label": 1.0}
{"compound": "OC(COc1ccc(Cl)cc1)CN1CCN(c2cccc(Cl)c2)CC1 (stereo not given)", "qualitative label": 1.0}
{"compound": "C=C1CC(O)C2C(C[Se]c3ccccc3)C(=O)O[C@@H]2C2C(=C)[C@@H](O)CC12 (stereo not given in full)", "qualitative label": 0.0}
{"compound": "O=C(CCN1CCN(c2cccc(Cl)c2)CC1)N1CCc2c([nH]c3ccccc23)C1c1cccnc1 (stereo not given)", "qualitative label": 1.0}
{"compound": "CCOC(=O)C(C=O)(C=O)c1ccccc1", "qualitative label": 0.0}
{"compound": "Cc1c(O)ccc(C(=O)CCl)c1O", "qualitative label": 0.0}
{"compound": "Cn1c(=S)c2[nH]c(SCCN3CCCCC3)nc2n(C)c1=O", "qualitative label": 1.0}
{"compound": "CCCOC(=O)C#CC(=O)OCCC", "qualitative label": 0.0}
{"compound": "CC12CCC3C(CCC4CC(O)CCC43C)C1CC1C2=NOC1O (stereo not given)", "qualitative label": 0.0}
{"compound": "O=C1c2ccccc2C(=O)c2sc(Nc3cc(Cl)ccc3Cl)nc21", "qualitative label": 1.0}
{"compound": "CC(/C=C1\\C(=O)N(C)C(CC(C)C(Cl)(Cl)Cl)C(=O)N1C)C(Cl)(Cl)Cl (stereo not given)", "qualitative label": 0.0}
{"compound": "CC1(C)C(=O)C(C(Cl)(Cl)Cl)=C(Cl)C(=O)C1(Cl)Cl", "qualitative label": 0.0}
{"compound": "C/C(=N\\NC(=S)N/N=C(\\C)c1ccccn1)c1ccccn1", "qualitative label": 1.0}
{"compound": "CCOC(=O)C(=Cc1ccc(C(=O)OC)cc1)C(=O)OCC", "qualitative label": 1.0}
{"compound": "COc1ccc(C2NCc3c(sc4c3CCCC4)-n3cccc32)cc1 (stereo not given)", "qualitative label": 0.0}
{"compound": "CC(C)N=Cc1cc(Br)cc(Br)c1O.CC(C)N=Cc1cc(Br)cc(Br)c1O.[Co]", "qualitative label": 1.0}
{"compound": "CCN(CC)CCNc1ccc2ncn3c4c(OC)ccc(=O)c4c(O)c1c23", "qualitative label": 0.0}
{"compound": "CCCCN(CCCC)CC(O)c1cc(-c2ccc(Cl)cc2)nc2cc(C)ccc12 (stereo not given)", "qualitative label": 1.0}
{"compound": "Cc1ccc(COCO)c(O)c1", "qualitative label": 0.0}
{"compound": "c1ccc(CC(Cc2ccccc2)c2cccnc2)cc1", "qualitative label": 1.0}
{"compound": "O=P1(O)c2ccccc2CS(=O)(=O)Cc2ccccc21", "qualitative label": 0.0}

src = PubChem BioAssay (NCI)
